assay: In vivo pharmacokinetic studies of dihydropyridines given orally with water, grapefruit juice or orange juice (plasma concentration, GC analysis); parameters: species or system human (healthy subjects, hypertensive patients); settings: human, plasma, po, felodipine ER tablets, healthy subjects, n = 9, water; mean
resultType: Tmax (h)
State just the number; it will be interpreted in h.

Sample CCOC(=O)C1=C(C)NC(C)=C(C(=O)OC)C1c1cccc(Cl)c1Cl (stereo not shown) [Felodipine] ; Tmax observed: 3.4

====

assay: In vivo pharmacokinetic studies of dihydropyridines given orally with water, grapefruit juice or orange juice (plasma concentration, GC analysis); parameters: species or system human (healthy subjects, hypertensive patients); details: human, plasma, po, felodipine plain tablets, healthy subjects, n = 9, water; mean
resultType: Cmax (nM)
State just the number; it will be interpreted in nM.

Sample CCOC(=O)C1=C(C)NC(C)=C(C(=O)OC)C1c1cccc(Cl)c1Cl (stereo not shown) ; Cmax observed: 6.6

====

experiment: In vivo pharmacokinetic studies of dihydropyridines given orally with water, grapefruit juice or orange juice (plasma concentration, GC analysis); parameters: species or system human (healthy subjects, hypertensive patients); conditions: human, plasma, po, felodipine plain tablets, patients, n = 6, grapefruit juice; mean
resultType: Tmax
Just the number plus its unit, please.

Sample CCOC(=O)C1=C(C)NC(C)=C(C(=O)OC)C1c1cccc(Cl)c1Cl (stereo not shown) ; Tmax observed: 2.1 h

====

experiment: In vivo pharmacokinetic studies of dihydropyridines given orally with water, grapefruit juice or orange juice (plasma concentration, GC analysis); parameters: species or system human (healthy subjects, hypertensive patients); details: human, in vivo, po, 10 mg, nitrendipine 10 mg tablets, healthy subjects, n = 3, grapefruit juice; mean
resultType: Tmax (h)
State just the number; it will be interpreted in h.

Sample CCOC(=O)C1=C(C)NC(C)=C(C(=O)OC)C1c1cccc([N+](=O)[O-])c1 (stereo not shown) [Nitrendipine] ; Tmax observed: 1.3

====

assay: In vivo pharmacokinetic studies of dihydropyridines given orally with water, grapefruit juice or orange juice (plasma concentration, GC analysis); parameters: species or system human (healthy subjects, hypertensive patients); conditions: human, plasma, po, felodipine plain tablets, healthy subjects, n = 9, water; mean; zero to infinity
resultType: AUC(0-inf)

Sample CCOC(=O)C1=C(C)NC(C)=C(C(=O)OC)C1c1cccc(Cl)c1Cl (stereo not shown) [Felodipine] ; AUC(0-inf) observed: 0.0228 µM·h
